This collection of values is drawn from patent US4068074A.

Test system: Proteus mirabilis IXM OM-19
Experiment: MIC against bacteria (Table I), strain (3)
Format: cell-based
Details: IXMOM19; (3) Proteus mirabilis IXM OM-19; read-out: MIC
Excerpt: Now, for illustrating the excellent pharmacological effects of the compounds of this invention, the values of MIC (γ/ml.) of the compounds against various bacteria are shown in Table 1, in which the compounds of this invention used are shown by example numbers. (3) Proteus mirabilis IXM OM-19

>  <Compound>
CC(=O)OCC1=C(C(=O)O)N2C(=O)[C@@H](NC(=O)[C@H](N)c3ccccc3)[C@H]2SC1 [Cephaloglycin, reference compound]

>  <Units Label>
µg/mL

>  <MIC>
100

$$$$
>  <Compound>
CC(Sc1nnc(SCC2=C(C(=O)O)N3C(=O)[C@@H](NC(=O)[C@H](NC(=O)c4cnccc4O)c4ccccc4)[C@H]3SC2)s1)C(=O)O (stereo partly drawn)

>  <Units Label>
µg/mL

>  <MIC>
0.39

$$$$
>  <Compound>
O=C(O)CCc1nnc(SCC2=C(C(=O)O)N3C(=O)[C@@H](NC(=O)[C@H](NC(=O)c4cnccc4O)c4ccccc4)[C@H]3SC2)s1

>  <Units Label>
µg/mL

>  <MIC>
0.39

$$$$

---

Tested on: Salmonella typhi H901 W
Assay: MIC against bacteria (Table I), strain (9)
Format: cell-based
Settings: Salmonella enterica, TYPHI
Description: Now, for illustrating the excellent pharmacological effects of the compounds of this invention, the values of MIC (γ/ml.) of the compounds against various bacteria are shown in Table 1, in which the compounds of this invention used are shown by example numbers. (9) Salmonella typhi H901 W

>  <Molecule>
Nc1nc(SCC(=O)O)cc(SCC2=C(C(=O)O)N3C(=O)[C@@H](NC(=O)[C@H](NC(=O)c4cnccc4O)c4ccccc4)[C@H]3SC2)n1

>  <Units Label>
µg/mL

>  <MIC>
3.13

$$$$
>  <Molecule>
Cc1cncc(C(=O)N[C@@H](C(=O)N[C@@H]2C(=O)N3C(C(=O)O)=C(CSc4nnc(SCC(=O)O)s4)CS[C@H]23)c2ccccc2)c1O

>  <Units Label>
µg/mL

>  <MIC>
0.78

$$$$
>  <Molecule>
CC(=O)OCC1=C(C(=O)O)N2C(=O)[C@@H](NC(=O)Cc3cccs3)[C@H]2SC1 [Cephalotin, reference compound]

>  <Units Label>
µg/mL

>  <MIC>
1.56

$$$$
>  <Molecule>
CC(Sc1nnc(SCC2=C(C(=O)O)N3C(=O)[C@@H](NC(=O)[C@H](NC(=O)c4cnccc4O)c4ccccc4)[C@H]3SC2)s1)C(=O)O (stereo partly drawn)

>  <Units Label>
µg/mL

>  <MIC>
1.56

$$$$
>  <Molecule>
O=C(O)CCSc1nnc(SCC2=C(C(=O)O)N3C(=O)[C@@H](NC(=O)[C@H](NC(=O)c4cnccc4O)c4ccccc4)[C@H]3SC2)s1

>  <Units Label>
µg/mL

>  <MIC>
1.56

$$$$
>  <Molecule>
O=C(O)Cn1nc(SCC2=C(C(=O)O)N3C(=O)[C@@H](NC(=O)[C@H](NC(=O)c4cnccc4O)c4ccccc4)[C@H]3SC2)ccc1=O

>  <Units Label>
µg/mL

>  <MIC>
3.13

$$$$

---

System: Bacillus subtilis ATCC 6633
Experiment: MIC against bacteria (Table I), strain (14)
Type: cell-based
Details: ATCC6633; (14) Bacillus subtilis ATCC 6633; read-out: MIC
Description: Now, for illustrating the excellent pharmacological effects of the compounds of this invention, the values of MIC (γ/ml.) of the compounds against various bacteria are shown in Table 1, in which the compounds of this invention used are shown by example numbers. (14) Bacillus subtilis ATCC 6633

>  <Compound>
COc1cc(O)ncc1C(=O)N[C@@H](C(=O)N[C@@H]1C(=O)N2C(C(=O)O)=C(CSc3nnc(SCC(=O)O)s3)CS[C@H]12)c1ccccc1

>  <Units Label>
µg/mL

>  <MIC>
12.5

$$$$
>  <Compound>
O=C(O)CSc1nnc(SCC2=C(C(=O)O)N3C(=O)[C@@H](NC(=O)[C@H](NC(=O)c4csccc4=O)c4ccccc4)[C@H]3SC2)s1

>  <Units Label>
µg/mL

>  <MIC>
0.19

$$$$
>  <Compound>
CC(=O)OCC1=C(C(=O)O)N2C(=O)[C@@H](NC(=O)[C@H](N)c3ccccc3)[C@H]2SC1 [Cephaloglycin, reference compound]

>  <Units Label>
µg/mL

>  <MIC>
0.3

$$$$
>  <Compound>
O=C(O)C1=C(CSc2nnc(SCCS(=O)(=O)O)s2)CS[C@@H]2[C@H](NC(=O)[C@H](NC(=O)c3cnccc3O)c3ccccc3)C(=O)N12

>  <Units Label>
µg/mL

>  <MIC>
0.39

$$$$
>  <Compound>
Cc1nc(SCC2=C(C(=O)O)N3C(=O)[C@@H](NC(=O)[C@H](NC(=O)c4cnccc4O)c4ccccc4)[C@H]3SC2)sc1CC(=O)O

>  <Units Label>
µg/mL

>  <MIC>
0.78

$$$$
>  <Compound>
Cc1nc(SCC2=C(C(=O)O)N3C(=O)[C@@H](NC(=O)[C@H](NC(=O)c4cnccc4O)c4ccccc4)[C@H]3SC2)sc1C(=O)O

>  <Units Label>
µg/mL

>  <MIC>
0.78

$$$$
>  <Compound>
COc1cc(C)ncc1C(=O)N[C@@H](C(=O)N[C@@H]1C(=O)N2C(C(=O)O)=C(CSc3nnc(SCC(=O)O)s3)CS[C@H]12)c1ccccc1

>  <Units Label>
µg/mL

>  <MIC>
0.78

$$$$
